Note to self: these compounds have pKi reported for UniProt P46663 in various publications.
pKi: −log10 of the molar value.
Everything with pKi lower than 8 is false (0); everything else, including exactly 8, is true (1).

**Q:** Can COc1cc(C)c(S(=O)(=O)N(C)CCOCC(=O)N(C)CC2CCC(NCCN(C)C)CC2)c(C)c1 (centres unmarked) be said to have pKi at or above 8?
**A:** true (1)

**Q:** Cc1nc(-c2c(F)cc(Cl)cc2-c2ccc3c(c2)CCCC3NC(=O)C2(NC(=O)C(F)(F)F)CC2)no1 (racemic) ?
**A:** false (0)

**Q:** COc1cc(C)c(S(=O)(=O)N(C)CCOCC(=O)N(C)[C@H]2CCN(C3CCN(CC4CC4)CC3)C2)c(C)c1 ?
**A:** true (1)

**Q:** COc1cc(C)c(S(=O)(=O)N(C)CCC(=O)Nc2ccc(N3CCC(N(C)C)CC3)c(Cl)c2)c(C)c1 ?
**A:** true (1)

**Q:** COc1cc(C)c(S(=O)(=O)N(C)CCOCC(=O)N(C)[C@H]2CC[C@@H](CN3CCC[C@H](N(C)C)C3)CC2)c(C)c1 ?
**A:** true (1)

**Q:** COc1cc(C)c(S(=O)(=O)N(C)CCC(=O)Nc2cc(Br)c(N3CCC(N(C)C)CC3)cc2C)c(C)c1 ?
**A:** true (1)

**Q:** Cc1nc(-c2c(F)cc(Cl)cc2-c2ccc3c(c2)CC[C@@H]3NC(=O)C2(NC(=O)c3ccno3)CC2)no1 ?
**A:** true (1)

**Q:** COc1ncc(C(=O)NC2(C(=O)N[C@H]3CCc4cc(-c5cc(Cl)cc(F)c5-c5noc(C)n5)ccc43)CC2)cn1 ?
**A:** true (1)

**Q:** Cc1nc(-c2c(F)cc(Cl)cc2-c2cc(F)c3c(c2)CCC3NC(=O)C2(N)CC2)no1 (racemic) ?
**A:** false (0)

**Q:** Cc1nc(-c2c(F)cc(Cl)cc2-c2ccc3c(c2)CC[C@@H]3NC(=O)C2(N)CC2)no1 ?
**A:** false (0)

**Q:** COc1cc(C(=O)NC2(C(=O)N[C@H](C)c3ncc(-c4cc(Cl)cc(Cl)c4OCC(F)F)cc3F)COC2)on1 ?
**A:** true (1)

**Q:** COc1ncc(C(=O)NC2(C(=O)N[C@H](C)c3ncc(-c4cc(Cl)cc(Cl)c4OCC(F)F)cc3F)COC2)cn1 ?
**A:** true (1)

====

Note to self: these molecules have Ki reported for B1 bradykinin receptor (Homo sapiens) in various publications.
Lab note - cut at 7 nM for Ki: 1 if strictly below, -1 if not.

**Q:** Given the entry Cc1cc(C(=O)NC2(C(=O)N[C@H](C)c3ccc(-c4cc(Cl)cc(F)c4-c4noc(C)n4)cc3F)COC2)on1 , would its reported Ki be below 7 nM?
**A:** 1

**Q:** COc1cc(C)c(S(=O)(=O)N(C)CCOCC(=O)N(C)Cc2ccc(-c3c[nH]c(C)n3)cc2)c(C)c1 ?
**A:** 1

**Q:** COc1cc(C)c(S(=O)(=O)N(C)CCOCC(=O)N(C)Cc2ccc(CNC(C)(C)C)cc2)c(C)c1 ?
**A:** 1

**Q:** Cn1nnc(-c2c(F)cc(Cl)cc2-c2ccc3c(c2)CC[C@@H]3NC(=O)C2(NC(=O)C(F)(F)F)COC2)n1 ?
**A:** -1

**Q:** CC(C)N(CCCC(=O)N(C)CCc1ccc(C2=NCCN2)cc1)S(=O)(=O)c1cccc(Cl)c1Cl ?
**A:** -1

**Q:** COc1cc(C)c(S(=O)(=O)N(C)CCOCC(=O)N(C)[C@@H]2CCN([C@H]3CC[C@@H](N4CCCC4)CC3)C2)c(C)c1 ?
**A:** 1

**Q:** COc1cc(C)c(S(=O)(=O)N(C)CCOCC(=O)N(C)Cc2ccc(N3CCC(N4CCCC4)C3)cc2Cl)c(C)c1 (stereo not drawn) ?
**A:** 1

**Q:** COc1cc(C)c(S(=O)(=O)N(C)CCOCC(=O)N(C)Cc2ccc(CN3CCCC3)cc2)c(C)c1 ?
**A:** 1

**Q:** Cc1nc(-c2c(F)cc(Cl)cc2-c2cnc3c(c2)CCC3NC(=O)C2(N)CC2)no1 (racemic) ?
**A:** -1

**Q:** C[C@@H](NC(=O)C1(NC(=O)C(F)(F)F)COC1)c1ncc(-c2cc(Cl)cc(F)c2-c2nnn(C)n2)cc1F ?
**A:** 1

**Q:** COc1cc(C)c(S(=O)(=O)N(C)CCC(=O)NC2CCN(c3ccc(CN4CCCC4)cc3Cl)CC2)c(C)c1 ?
**A:** -1

**Q:** COc1cc(C)c(S(=O)(=O)N(C)CCOCC(=O)N(C)C[C@H]2CC[C@@](C)(CN3CCC3)C2(C)C)c(C)c1 ?
**A:** 1

**Q:** COc1ncc(C(=O)NC2(C(=O)N[C@H](C)c3ccc(-c4cc(Cl)cc(Cl)c4OCC(F)F)cc3F)COC2)cn1 ?
**A:** 1

**Q:** COc1cc(C)c(S(=O)(=O)N(C)CCOCC(=O)N(C)Cc2ccc(OCCN(C)C)c(Cl)c2)c(C)c1 ?
**A:** -1
